- method: NCI Yeast Anticancer Drug Screen. Data for the mlh1 rad18 strain (AID 175)
- recorded conditions: S. cerevisiae mlh1 rad18 strain growth inhibition; at 50.0 µM
Compounds without any hit were thinned out: in the full panel of roughly 79,000, 15% have a hit. Calls of active or inactive are those of the source. Rule as the data show it: active = growth inhibition above about 70%; inactive = the rest.
Form entry, call: pick from active, inactive

GET /call?item= CC1(C)CC2(c3ccccc3)CC(c3ccccc3)C1C(C(=O)O)C2C(=O)O (centres undefined) returns the recorded outcome of this test.
active

GET /call?item= CNP(=O)(Oc1cc(Cl)c(Cl)cc1Cl)N1CCN(c2ccccc2)CC1 (centres undefined) returns the recorded outcome of this test.
active

GET /call?item= C[N+](C)(C)CCNP(=O)(Oc1ccccc1)c1ccccc1 (centres undefined) returns the recorded outcome of this test.
inactive

GET /call?item= CC12CC(=O)C3C(CCC4CC=CCC43C)C1CCC2=O (centres undefined) returns the recorded outcome of this test.
inactive

GET /call?item= CC1(C)CCCC(C)(C)N1[P-]C(=O)[P-]N1C(C)(C)CCCC1(C)C.[C-]#[O+].[C-]#[O+].[C-]#[O+].[C-]#[O+].[C-]#[O+].[C-]#[O+].[Fe].[Fe] (centres undefined) returns the recorded outcome of this test.
inactive

GET /call?item= O=C1NC(=O)C(F)C(O)N1 (centres undefined) returns the recorded outcome of this test.
inactive

GET /call?item= O=C(CCl)Oc1ccccc1Cl returns the recorded outcome of this test.
inactive

GET /call?item= CC(=O)CC(C)=O.CC(=O)CC(C)=O.[Ni] returns the recorded outcome of this test.
inactive

GET /call?item= CCn1nnnc1N returns the recorded outcome of this test.
inactive

GET /call?item= Nc1cccc2scnc12 (tested in a mixture with another compound) returns the recorded outcome of this test.
inactive

GET /call?item= C1CC2CCC(N3CCCC3)C(C1)C21OCCO1 (centres undefined) returns the recorded outcome of this test.
inactive

GET /call?item= CC(C)CC(=O)[O-].CC(C)CC(=O)[O-].N.N.N.N.[Co+3].[O-][Cl+3]([O-])([O-])O.[O-][Cl+3]([O-])([O-])[O-] returns the recorded outcome of this test.
inactive

GET /call?item= COP12(OC)NC(=O)OC1(C(F)(F)F)c1ccccc1O2 (centres undefined) returns the recorded outcome of this test.
inactive

GET /call?item= CCOC(=O)C(=O)CC(=O)[C@H]1CC[C@H]2[C@@H]3CC[C@@H]4C[C@H](O)CC[C@]4(C)[C@H]3C(=O)C[C@]12C returns the recorded outcome of this test.
inactive

GET /call?item= O=P(O)(O)C(O)c1ccncc1 (centres undefined) returns the recorded outcome of this test.
inactive

GET /call?item= CN(C)CCC(C)(C#N)c1ccccc1 (centres undefined) returns the recorded outcome of this test.
inactive

GET /call?item= C[n+]1cccc(C2CCC[N+]2(C)C)c1 (centres undefined) returns the recorded outcome of this test.
inactive

GET /call?item= CCCCN1COC2CCCCC21 (centres undefined) returns the recorded outcome of this test.
inactive

GET /call?item= CCC1(c2ccccc2)C(=O)N(CCCl)C(=O)N(CCCl)C1=O returns the recorded outcome of this test.
inactive

GET /call?item= CCOC(=O)C(Br)C(C)C (centres undefined) returns the recorded outcome of this test.
inactive

GET /call?item= c1ccc(-c2ccc([As](c3ccccc3)c3ccccc3)cc2)cc1 returns the recorded outcome of this test.
inactive

GET /call?item= N#CC1C(=O)c2ccccc2C1=O returns the recorded outcome of this test.
inactive

GET /call?item= C[C@@H]1C[C@H]2CC[C@H](O2)[C@H](C)C(=O)O[C@@H](C)C[C@@H]2CC[C@@H](O2)[C@@H](C)C(=O)O[C@H](C)C[C@H]2CC[C@H](O2)[C@H](C)C(=O)O[C@@H](C)C[C@@H]2CC[C@@H](O2)[C@@H](C)C(=O)O1 returns the recorded outcome of this test.
active

GET /call?item= C[CH2][Sn]1([CH2]C)[O]S(=O)(=O)[O]1 returns the recorded outcome of this test.
inactive

GET /call?item= CC(=O)O/C=C(/C=C/OC(C)=O)C(C/C=C(\C)C#CC=C(C)C)OC(C)=O (centres undefined) returns the recorded outcome of this test.
inactive

GET /call?item= COc1cc2c(c3c[n+](C)c4c5cc6c(cc5ccc4c13)OCO6)OCO2 returns the recorded outcome of this test.
active

GET /call?item= Cc1cccc(C)c1N returns the recorded outcome of this test.
inactive

GET /call?item= C[C@]12Cc3cnc(-c4ccccc4)nc3C[C@@H]1CC[C@@H]1[C@@H]2CC[C@@]2(C)[C@H]1CC[C@]2(C)O returns the recorded outcome of this test.
inactive

GET /call?item= O=C1NC(=O)C(CCC(=O)c2ccc3ccccc3c2)C(=O)N1 returns the recorded outcome of this test.
inactive

GET /call?item= [O]=[Sb]([OH])([OH])[c]1ccc(NC2OC(CO)C(O)C(O)C2O)cc1 (centres undefined) returns the recorded outcome of this test.
inactive

GET /call?item= COc1ccc(CCNC2(C#N)CCCCC2)cc1OC returns the recorded outcome of this test.
inactive

GET /call?item= COC(=O)[C@H]1[C@@H](O)[C@@]2(O)c3c(OC)cc(OC)cc3O[C@@]2(c2ccc3c(c2)OCO3)[C@@H]1c1ccccc1 returns the recorded outcome of this test.
active

GET /call?item= O=C(Nc1cccc(F)c1)c1c(O)[nH]c(=S)[nH]c1=O returns the recorded outcome of this test.
inactive

GET /call?item= C=CC[NH-].C=CC[NH-].CC(=O)CC(C)=O.CC(=O)CC(C)=O.[Ni+2] returns the recorded outcome of this test.
inactive

GET /call?item= S=P(Nc1ccc(Cl)cc1)(Nc1ccc(Cl)cc1)c1ccccc1 returns the recorded outcome of this test.
active

GET /call?item= O=C1NC(=S)NC(=O)C1=Cc1ccc(-c2ccccc2)cc1 returns the recorded outcome of this test.
inactive

GET /call?item= Oc1c(I)cc(I)cc1I returns the recorded outcome of this test.
inactive

GET /call?item= CCOP(=O)(OCC)/C(C#N)=C/c1cn(C)cn1 returns the recorded outcome of this test.
inactive

GET /call?item= c1ccc2cc(C3NCCc4[nH]cnc43)ccc2c1 (centres undefined) returns the recorded outcome of this test.
inactive

GET /call?item= CC1C2CCC3C(O)C2(CC(O)C2(O)C1CC(O)C2(C)C)CC3(C)O (centres undefined) returns the recorded outcome of this test.
inactive

GET /call?item= CCCCN=C=S returns the recorded outcome of this test.
inactive

GET /call?item= C=COC(=O)NC(C(=O)O)C(C)CC (centres undefined) returns the recorded outcome of this test.
inactive

GET /call?item= c1ccc(C[As](c2ccccc2)c2ccccc2)cc1 returns the recorded outcome of this test.
active

GET /call?item= C[N+]1(CC2CC2)C2CC(OC(=O)C(CO)c3ccccc3)CC1C1OC12 (centres undefined) returns the recorded outcome of this test.
inactive

---

- method: NCI Yeast Anticancer Drug Screen. Data for the mlh1 rad18 strain (AID 175)
- recorded conditions: S. cerevisiae mlh1 rad18 strain growth inhibition; at 50.0 µM; active compounds read high
The panel holds about 79,000 compounds, 15% with a hit somewhere; the sample as a whole holds those more often.
assay metric: growth inhibition (%)
Give just the number in %; leave the unit off.

For O=P(c1cccc(C(F)(F)F)c1)(c1cccc(C(F)(F)F)c1)c1cccc(C(F)(F)F)c1.O=P(c1cccc(C(F)(F)F)c1)(c1cccc(C(F)(F)F)c1)c1cccc(C(F)(F)F)c1.[Cl][Sn]([Cl])([Cl])[Cl] the molecule record lists growth inhibition as 61.1

For CC1C/C(=C\N=[N+]=[N-])C(=O)O1 (stereo unspecified) the molecule record lists growth inhibition as -0.05

For CN(C)C(=O)C(Cl)Cl the molecule record lists growth inhibition as 2.25

For O=NN(CCF)C(=O)NCCO the molecule record lists growth inhibition as -32.2

For [Be]=[Se] the molecule record lists growth inhibition as 29.7

For CC(C)c1ccccc1OP(=S)(S)Oc1ccccc1C(C)C the molecule record lists growth inhibition as 79

For O=C(Cc1ccccc1)OC1CCCC1 the molecule record lists growth inhibition as 19

For CCN1C(=O)C(=Cc2ccc(-c3ccccc3)cc2)C(=O)N(CC)C1=S the molecule record lists growth inhibition as 20.4

For Nc1ccccc1Nc1ccccc1C(=O)[O-].Nc1ccccc1Nc1ccccc1C(=O)[O-].[Zn+2] the molecule record lists growth inhibition as -7.55

For N#C[C@H](OC1OC(COC2OC(CO)C(O)C(O)C2O)C(O)C(O)C1O)c1ccccc1 (stereo partly specified) the molecule record lists growth inhibition as -28.1

For Nc1n[nH][nH]c1=O the molecule record lists growth inhibition as -12.1

---

Give measured growth inhibition for each item. Keep answers brief.
- method: NCI Yeast Anticancer Drug Screen. Data for the mec2-1 strain (AID 157)
- recorded conditions: S. cerevisiae mec2-1 strain, at 50.0 µM, active compounds read high
This is part of a sample that, as a whole, favours compounds with a hit. Of some 79,000 tested, about 15% had one in any assay.
Give just the number in %; leave the unit off.

For CC(C)(C)N1OC1C(Cl)(Cl)Cl (stereo not given) the molecule record lists growth inhibition as -9.55

For O=C(O)c1cc(C(=O)O)cc(S(=O)(=O)F)c1 the molecule record lists growth inhibition as 3.75

For C[C@@H]1C[C@@]2(O[C@@H]2C)C(=O)O[C@@H]2CCN3CC=C(COC(=O)[C@]1(C)O)[C@H]23 the molecule record lists growth inhibition as -16.2

For COc1ccc2nc3ccccc3c(NCCCCN(C)CCCl)c2c1 the molecule record lists growth inhibition as 70.8

For O=NNc1ccc(Cl)cn1 the molecule record lists growth inhibition as 3.75

For CC(C)CCC(=O)OC1CCC2(C)C(=CCC3C4CCC(=O)C4(C)CCC32)C1 (stereo not given) the molecule record lists growth inhibition as 12.1

For CC(=O)NNC(=O)C(Cl)Cl the molecule record lists growth inhibition as -3.75

For Cc1cc(N(CCCl)CCCl)ccc1C=N/C(C#N)=C(\N)C#N the molecule record lists growth inhibition as -9.05

For [Ni+2].[O-]c1ccc(Cl)cc1C=NCc1ccccn1.[O-]c1ccc(Cl)cc1C=NCc1ccccn1 the molecule record lists growth inhibition as 96.7

For c1ccc2c(c1)Nc1ccccc1S2 the molecule record lists growth inhibition as 10.1

For O.O.[NH-]C1CCCCC1[NH-].[Pt+2] (stereo not given) the molecule record lists growth inhibition as 33.6

For CCOc1ccc(CCNC)c2c1ccc1ccc(OC)c(O)c12 the molecule record lists growth inhibition as 99

For CC(=O)OC1CC(OC2C(O)CC(OC3C(O)CC(OC4CCC5(C)C(CCC6C5CC(O)C5(C)C(C7=CC(=O)OC7)CCC65O)C4)OC3C)OC2C)OC(C)C1OC1OC(CO)C(O)C(O)C1O (stereo not given) the molecule record lists growth inhibition as -15.4

For CN(C)C(=O)Sc1c(Cl)cc(S(=O)(=O)F)cc1[N+](=O)[O-] the molecule record lists growth inhibition as 19.1

For C/C=C(\C)C(=O)N[C@@H](c1ccccc1)[C@@H](O)C(=O)OC1C[C@@]2(O)[C@@H](OC(=O)c3ccccc3)[C@@H]3[C@]4(OC(C)=O)CO[C@@H]4C[C@H](O)[C@@]3(C)C(=O)[C@H](OC(C)=O)C(=C1C)C2(C)C (stereo not given in full) the molecule record lists growth inhibition as 13.6

For [Cr+3].[NH-]CC[NH-].[NH-]CC[NH-].[NH-]CC[NH-].[O-][Cl+3]([O-])([O-])O the molecule record lists growth inhibition as 1.2

For C[CH2][Sn]([CH2]C)([n]1c(C)nc2ccccc21)[n]1c(C)nc2ccccc21 the molecule record lists growth inhibition as 2.95

For O=[N+]([O-])c1ccc(NC(c2ccccc2)P(=O)(Oc2ccccc2)Oc2ccccc2)cc1 (stereo not given) the molecule record lists growth inhibition as -6.4

For Cc1cc(NC(=O)CCc2ccc(N3C(N)=NC(N)=NC3(C)C)cc2Cl)ccc1S(=O)(=O)F the molecule record lists growth inhibition as 94.1

For CCOP(=O)(OCC)/C(=C/c1cccs1)CC(C)=O the molecule record lists growth inhibition as -57.6
